Where do these numbers come from? They come from patent US20210032312A1.

- testTarget: T1, human CD8 alpha (CD8A) on primary human CD8+ T cells (human, UniProt P01732 22-235)
- T1 construct: whole, on cells; also called hCD8A
- T1 sequence (P01732 22-235): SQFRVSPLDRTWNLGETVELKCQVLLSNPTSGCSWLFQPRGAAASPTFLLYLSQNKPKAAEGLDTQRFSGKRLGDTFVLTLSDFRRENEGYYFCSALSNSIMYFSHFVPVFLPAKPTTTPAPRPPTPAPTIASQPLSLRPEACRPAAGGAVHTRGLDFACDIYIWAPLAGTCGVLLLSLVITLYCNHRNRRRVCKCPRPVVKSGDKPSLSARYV
- assayInfo: flow cytometry, human CD8+ T cells
testReadout: Human T-cell Binding 2 uM (MFI)
Note: unit MFI is implicit; provide only the numeric part.

Record P283FR9P1366_H6 (designed binder, FN3 domain) LPAPKNLVVSRVTEDSARLSWTAPDAAFDSFDIAYPEWPVTGEAIVLTVPGSERSYDLTGLKPGTEYWVIIFGVKGGERSWPLSAIFTT . Reported Human T-cell Binding 2 uM (MFI): 43900

Record P283DR9P1364_F8 (designed binder, FN3 domain) LPAPKNLVVSRVTEDSARLSWTAPDAAFDSFAIAYPEWPPGEAIVLTVPGSERSYDLTGLKPGTEYFVIIYGVKGGWTSPPLSAIFTT . Reported Human T-cell Binding 2 uM (MFI): 6300

Record P283GR7P1367_H2 (designed binder, FN3 domain) LPAPKNLVVSRVTEDSARLSWTAPDAAFDSFDIAYPEWPTDGEAIVLTVPGSERSYDLTGLKPGTEYFVVIYGVKGGGRSYPLSAIFTT . Reported Human T-cell Binding 2 uM (MFI): 1620

Record P283FR9P1366_C2 (designed binder, FN3 domain) LPAPKNLVVSRVTEDSARLSWTAPDAAFDSFKISYPEWPPEGEAIVLTVPGSERSYDLTGLKPGTEYAVFIWCVKGGEHSWPLSAIFTT . Reported Human T-cell Binding 2 uM (MFI): 41000

Record P283DR9P1364_H9 (designed binder, FN3 domain) LPAPKNLVVSRVTEDSARLSWTAPDAAFDSFSISYIEYPEIPGGEAIVLTVPGSERSYDLTGLKPGTEYWVPIWGVKGGIQSWPLSAIFTT . Reported Human T-cell Binding 2 uM (MFI): 32800

Record P283ER9P1365_H3 (designed binder, FN3 domain) LPAPKNLVVSRVTEDSARLSWTAPDAAFDSFYIPYRESEFRGEAIALPVPGSERSYDLTGLKPGTKYRVIIIGVKGGEFSQPLSAIFTT . Reported Human T-cell Binding 2 uM (MFI): 18000

Record P283HR7P1368_G1 (designed binder, FN3 domain) LPAPKNLVVSRVTEDSARLSWTAPDAAFDSFLITYWEIEPEGEAIFLGVPGSERSYDLTGLKPGTEYRVQINGVKGGTISYPLFAGFTT . Reported Human T-cell Binding 2 uM (MFI): 31300

Record P283FR9P1366_C6 (designed binder, FN3 domain) LPAPKNLVVSRVTEDSARLSWTAPDAAFDSFSIAYPEWPVYGEAIVLTVPGSERSYDLTGLKPGTEYFVVIYGVKGGNYSDPLSAIFTT . Reported Human T-cell Binding 2 uM (MFI): 4540

Record P283DR9P1364_G9 (designed binder, FN3 domain) LPAPKNLVVSRVTEDSARLSWTAPDAAFDSFGIWYPEWPVGGEAIVLTVPGSERSYDLTGLKPGTEYWVNISGVKGGEYSFPLSAIFTT . Reported Human T-cell Binding 2 uM (MFI): 9890
